- Test system: TCR-transfectant cells specific for DQ2.5-glia-ω2
- test: Inhibition by primary amines of activation of DQ2.5-glia-ω2-specific T cells by TG2-specific B cells, IL-2 ELISA
- Format: cell-based
- experimental parameters: 5 µM N-ω-gliadin 34-mer, TG2, CaCl2, amine 0-1000 µM, IL-2 ELISA; DQ2.5-glia-ω2, mean
endpoint: pIC50
In plain terms, pIC50 is the concentration in mol/L turned into minus its base-10 logarithm.

NCCCNCCCCNCCCN [spermine]: 4.56

According to the records, this molecule NCCCCCNC(=O)CCCC[C@@H]1SC[C@@H]2NC(=O)N[C@@H]21 [5-BP, 5‐biotinamido‐pentylamine] displays pIC50 of 4.57
